EC50 by entry:
- assay_system: Streptokinase A (Streptococcus pyogenes serotype M1)
- Sequence (P10520 whole entry): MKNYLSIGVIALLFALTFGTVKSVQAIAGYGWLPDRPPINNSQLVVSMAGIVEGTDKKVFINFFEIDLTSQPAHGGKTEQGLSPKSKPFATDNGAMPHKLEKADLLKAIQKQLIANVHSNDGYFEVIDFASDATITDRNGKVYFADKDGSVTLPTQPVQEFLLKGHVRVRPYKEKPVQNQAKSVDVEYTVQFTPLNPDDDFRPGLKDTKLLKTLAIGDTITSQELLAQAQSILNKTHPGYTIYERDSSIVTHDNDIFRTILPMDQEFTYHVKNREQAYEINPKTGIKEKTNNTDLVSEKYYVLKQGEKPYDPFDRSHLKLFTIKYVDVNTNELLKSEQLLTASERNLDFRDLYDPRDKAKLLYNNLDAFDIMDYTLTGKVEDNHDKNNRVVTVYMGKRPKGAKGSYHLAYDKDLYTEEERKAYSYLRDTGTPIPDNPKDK
- assay_comment: viability-normalized secreted streptokinase activity reduction – plasminogen activation absorbance, OD405, dose response (AID 1914);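 also: secreted streptokinase activity via plasminogen activation per viability signal from cell pellet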
- Assay type: functional, Streptococcus pyogenes M1 GAS
Activity calls are given as the source filed them. Rule as the data show it: actives have a measured EC50 and inactives only a lower limit.

[
  {
    "compound": "Clc1ccc(-c2cc3ccccc3nc2N2CCCC2)cc1",
    "assay_system": "Streptokinase A (Streptococcus pyogenes serotype M1)",
    "EC50": "17.6 µM (active)"
  },
  {
    "compound": "CCCCNc1c(-c2ccc(SC3CCCCC3)cc2)nc2ccccn12",
    "assay_system": "Streptokinase A (Streptococcus pyogenes serotype M1)",
    "EC50": "> 150 µM (not active)"
  },
  {
    "compound": "O=C(COC(=O)c1ccccc1)Nc1ccccc1Sc1ccccc1",
    "assay_system": "Streptokinase A (Streptococcus pyogenes serotype M1)",
    "EC50": "28.8 µM (active)"
  },
  {
    "compound": "CCCC(NC(=S)NCC1CCCO1)C12CC3CC(CC(C3)C1)C2 (stereo not drawn)",
    "assay_system": "Streptokinase A (Streptococcus pyogenes serotype M1)",
    "EC50": "18 µM (active)"
  },
  {
    "compound": "Cc1c(C(=O)N2CCC(Cc3ccccc3)CC2)sc2ncnc(N3CCC(C)CC3)c12",
    "assay_system": "Streptokinase A (Streptococcus pyogenes serotype M1)",
    "EC50": "3.68 µM (active)"
  },
  {
    "compound": "O=C(Nc1ccccc1Sc1ccccc1)c1ccccc1F",
    "assay_system": "Streptokinase A (Streptococcus pyogenes serotype M1)",
    "EC50": "> 50 µM (not active)"
  },
  {
    "compound": "COCCNC(=O)c1c(NC(=O)c2ccco2)n(Cc2ccccc2)c2nc3ccccc3nc12",
    "assay_system": "Streptokinase A (Streptococcus pyogenes serotype M1)",
    "EC50": "> 150 µM (not active)"
  },
  {
    "compound": "Cc1nn(C)c(Cl)c1CN1CCCC(C(=O)Nc2ccc(-c3cscn3)cc2)C1 (stereo not drawn)",
    "assay_system": "Streptokinase A (Streptococcus pyogenes serotype M1)",
    "EC50": "> 150 µM (not active)"
  },
  {
    "compound": "COc1ccccc1CNC(=O)c1ccc(-c2ccccc2Cl)o1",
    "assay_system": "Streptokinase A (Streptococcus pyogenes serotype M1)",
    "EC50": "> 150 µM (not active)"
  },
  {
    "compound": "Cc1nc(Nc2cnc(/C=C/c3cc(C(=O)Nc4cccc(C(F)(F)F)c4)ccc3C)cn2)cc(N2CCNCC2)n1",
    "assay_system": "Streptokinase A (Streptococcus pyogenes serotype M1)",
    "EC50": "11.4 µM (active)"
  },
  {
    "compound": "Cc1noc(C)c1CSCC(=O)Nc1nc2ccc(Oc3ccccc3)cc2s1",
    "assay_system": "Streptokinase A (Streptococcus pyogenes serotype M1)",
    "EC50": "16.9 µM (active)"
  },
  {
    "compound": "CCCn1c(=O)c(C(=O)Nc2ncccc2C)c(O)c2ccccc21",
    "assay_system": "Streptokinase A (Streptococcus pyogenes serotype M1)",
    "EC50": "> 150 µM (not active)"
  },
  {
    "compound": "CC(Oc1ccc(Cl)cc1Cl)C(=O)Nc1ccc(S(=O)(=O)Nc2cnc3ccccc3n2)cc1 (stereo not drawn)",
    "assay_system": "Streptokinase A (Streptococcus pyogenes serotype M1)",
    "EC50": "3.69 µM (active)"
  },
  {
    "compound": "Cc1ccc(N2C(=O)C3N=NN(CC(=O)N4N=C(c5cccc6ccccc56)CC4c4ccccc4)C3C2=O)cc1 (stereo not drawn)",
    "assay_system": "Streptokinase A (Streptococcus pyogenes serotype M1)",
    "EC50": "35.7 µM (active)"
  },
  {
    "compound": "Cc1cc2c(cc1C)-c1c(ss/c1=N\\c1ccc(S(N)(=O)=O)cc1)C(C)(C)N2",
    "assay_system": "Streptokinase A (Streptococcus pyogenes serotype M1)",
    "EC50": "26.1 µM (active)"
  },
  {
    "compound": "O=C(Nc1cccc(-c2csc(Nc3cccc(C(F)(F)F)c3)n2)c1)c1ccccc1",
    "assay_system": "Streptokinase A (Streptococcus pyogenes serotype M1)",
    "EC50": "> 150 µM (not active)"
  },
  {
    "compound": "O=C(O)CSc1nnc(Cn2c(=O)sc3ccccc32)n1-c1cccc(Cl)c1",
    "assay_system": "Streptokinase A (Streptococcus pyogenes serotype M1)",
    "EC50": "> 150 µM (not active)"
  },
  {
    "compound": "O=C(Nc1cccc(NC(=O)c2ccc([N+](=O)[O-])o2)c1)c1ccco1",
    "assay_system": "Streptokinase A (Streptococcus pyogenes serotype M1)",
    "EC50": "111 µM (active)"
  },
  {
    "compound": "CC(C)c1c(C(=O)N/N=C/c2cccc(OCc3ccccc3)c2)nnn1-c1nonc1N",
    "assay_system": "Streptokinase A (Streptococcus pyogenes serotype M1)",
    "EC50": "9.73 µM (active)"
  },
  {
    "compound": "COc1ccccc1C(=O)Nc1nnc(S(=O)(=O)N2CCN(c3ccc(F)cc3)CC2)s1",
    "assay_system": "Streptokinase A (Streptococcus pyogenes serotype M1)",
    "EC50": "> 50 µM (not active)"
  },
  {
    "compound": "Cc1ccc(/N=C/c2cccc(O)c2O)c(C)c1",
    "assay_system": "Streptokinase A (Streptococcus pyogenes serotype M1)",
    "EC50": "> 150 µM (not active)"
  },
  {
    "compound": "COc1ccc(C(=O)Nc2sc(C)c(-c3ccccc3)c2C#N)cc1OC",
    "assay_system": "Streptokinase A (Streptococcus pyogenes serotype M1)",
    "EC50": "> 150 µM (not active)"
  },
  {
    "compound": "CCOc1ccc(NC(=S)NNC(=S)Nc2cccc(C(F)(F)F)c2)cc1",
    "assay_system": "Streptokinase A (Streptococcus pyogenes serotype M1)",
    "EC50": "> 150 µM (not active)"
  }
]
